Value source: PubChem BioAssay AID488888

biological target: Alkaline phosphatase, placental type (Homo sapiens) (UniProt P05187); assay: activation of placental alkaline phosphatase – biochemical, uHTS hits, luminescence, selectivity assay for human IAP activator project, dose response (AID 488888); conditions: purified PLAP, CDP-Star luminescence, 30 min
Sequence (P05187 whole entry, looked up): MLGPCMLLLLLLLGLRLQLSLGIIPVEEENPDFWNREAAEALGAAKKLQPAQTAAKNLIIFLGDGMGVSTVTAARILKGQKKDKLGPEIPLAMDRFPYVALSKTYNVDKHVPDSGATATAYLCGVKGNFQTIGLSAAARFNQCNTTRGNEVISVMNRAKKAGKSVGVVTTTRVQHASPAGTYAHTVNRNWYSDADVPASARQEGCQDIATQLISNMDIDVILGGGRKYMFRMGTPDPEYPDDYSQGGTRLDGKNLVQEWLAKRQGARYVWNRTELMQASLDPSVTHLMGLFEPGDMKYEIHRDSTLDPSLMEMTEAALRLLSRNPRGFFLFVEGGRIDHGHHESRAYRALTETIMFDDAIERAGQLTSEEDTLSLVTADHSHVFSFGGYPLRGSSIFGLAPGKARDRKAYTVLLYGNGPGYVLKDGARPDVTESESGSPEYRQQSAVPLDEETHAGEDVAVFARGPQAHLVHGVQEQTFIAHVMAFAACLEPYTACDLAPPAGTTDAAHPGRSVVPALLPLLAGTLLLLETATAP
Below, each entry is listed alongside its reported EC50.

Compound	EC50
Cc1[nH]n(-c2nc(-c3ccccc3)cc(=O)[nH]2)c(=O)c1CCO	30.8 µM
CC(C)C(=O)NC(=S)Nc1ccccc1C(=O)Nc1ccccc1	9.82 µM
O=c1c2ccccc2nc(N/N=C/c2c(O)ccc3ccccc23)n1O	35.2 µM
Cc1cc(Br)ccc1SCC(=O)OC/C(O)=C(\C#N)c1nc2ccccc2[nH]1	25.5 µM
CC(C)(C)NC(=O)C(=O)NNC(=O)COc1ccccc1	35.9 µM
O=C(NC(=S)NNC(=O)c1ccccc1O)c1ccc(F)cc1	13.6 µM
CN(CC(=O)Nc1ccccc1F)CC(=O)Nc1ccc(F)c(F)c1F	28.4 µM
COc1ccccc1CCNC(=O)C1CCN(c2nnc(C)c3c(C)n(-c4ccc(C)cc4)nc23)CC1	56 µM
COc1ccccc1CN1CCC(n2nccc2NC(=O)CCCc2ccccc2)CC1	69 µM
Cn1c(/C(C#N)=C(\O)c2ccc(Br)s2)nc2ccccc21	62.2 µM
CCC(C)(C)C1CCc2[nH]nc(C(=O)N/N=C(\C)c3ccco3)c2C1 (configuration not stated)	59.3 µM
CC(C)n1cc(CN2CCC(C(=O)Nc3cccc(-c4cccc(Cl)c4)c3)CC2)cn1	78.1 µM
Cc1cc(C)cc(OCC(=O)NNC(=O)c2cc(C)[nH]n2)c1	18.7 µM
COc1ccc(CN2CCC(n3nccc3NC(=O)CCCc3ccccc3)CC2)cc1C	71.6 µM
O=C1Nc2ccc(Br)cc2C12NNc1ccccc1O2 (configuration not stated)	0.55 µM
CCOc1ccc(/C=N/NC(=O)c2[nH]ncc2Br)c(O)c1	11.2 µM
Cc1nc(S/C(=C/c2ccc(-c3ccc(Cl)cc3)o2)C(=O)O)n[nH]1	13.2 µM
CC(NS(=O)(=O)c1ccc(Br)cc1)C(=O)Nc1nc2ccccc2[nH]1 (configuration not stated)	14.7 µM
CC(=O)Nc1cccc(C(=O)NNC(=O)c2n[nH]c(=O)c3ccccc23)c1	12.5 µM
Cc1ccsc1C(=O)NNC(=S)NC1CCCCC1	14.3 µM
CC(NC(=S)NC1CCC(C(C)(C)C)CC1)c1ccccc1 (configuration not stated)	41.1 µM
COc1ccc(C2=NN(C3=NN=C(N)Cc4ncnn43)C(O)(C(F)(F)F)C2)cc1 (configuration not stated)	14.4 µM
